Test system: MDA-MB-435 breast cancer cell line
Assay: MTT cytotoxicity assay, MDA-MB-435
Assay type: cell-based, human
Conditions: Homo sapiens, MDA-MB-435, 72 h, 72 h exposure
PROPERTY MEASURED: IC50

The cases that follow already have their IC50 on record.
> print(dat)
                                   compound         result
1  C#CC(=O)N(c1ccc(-n2cnnn2)c(C)c1)C(C(=O)NC1CCCC1)c1ccccc1 (stereo not drawn)  0.6 to 6.3 µM
2  C#CC(=O)N(c1ccccc1)C(C(=O)NC1CCCCC1)c1cccs1 (stereo not drawn)        > 10 µM

Now consider the entry below.
// lookup IC50 for C#CC(=O)N(Cc1ccc2c(c1)OCO2)C(C(=O)NCc1ccccc1)c1ccccc1F (stereo not drawn) > 10 µM
